Hello, the source for this data is patent US6242425A, in case you need it.

Tested on: homologous passive cutaneous anaphylaxis (PCA) reaction in rats
Assay protocol: Effect on homologous passive cutaneous anaphylaxis (PCA) reaction in rats
Assay type: in vivo, rat (male wistar rats)
Experimental setup: 0.5 mg/kg i.v., 1 hour before challenge, vs vehicle control
# key: entry, value: inhibition (%) of PCA reaction
Give the value, in units of %, as a plain number.

Please review the entries below; each comes with its answer.
CCCCCCCCOc1c(O)c2ccc(NC(=O)/C=C/c3cc(OC)c(O[C@H]4O[C@H](CO)[C@@H](O)[C@H](O)[C@@H]4O)c(OC)c3)cc2n(C)c1=O = 40
CCCCCCCCOc1c(O[C@@H]2O[C@H](C(=O)O)[C@@H](O)[C@H](O)[C@H]2O)c2ccc(NC(=O)/C=C/c3cc(OC)c(O[C@@H]4O[C@H](C(=O)O)[C@@H](O)[C@H](O)[C@H]4O)c(OC)c3)cc2n(C)c1=O = 54
CCCCCCCCOc1c(O)c2ccc(NC(=O)/C=C/c3cc(OC)c(O[C@@H]4O[C@H](CO)[C@@H](O)[C@H](O)[C@H]4O)c(OC)c3)cc2n(C)c1=O = 46

Please fill in: inhibition (%) of PCA reaction reported for `CCCCCCCCOc1c(O[C@@H]2O[C@H](CO)[C@H](O)[C@H](O)[C@H]2O)c2ccc(NC(=O)/C=C/c3cc(OC)c(O)c(OC)c3)cc2n(C)c1=O` = 43

Memo: `CCCCCCCCOc1c(O[C@H]2O[C@H](CO)[C@@H](O)[C@H](O)[C@@H]2O)c2ccc(NC(=O)/C=C/c3cc(OC)c(O[C@H]4O[C@H](CO)[C@@H](O)[C@H](O)[C@@H]4O)c(OC)c3)cc2n(C)c1=O` , reported inhibition (%) of PCA reaction: 45

Entry under test: `CCCCCCCCOc1c(O[C@@H]2O[C@H](CO)[C@@H](O)[C@H](O)[C@H]2O)c2ccc(NC(=O)/C=C/c3cc(OC)c(O[C@@H]4O[C@H](CO)[C@@H](O)[C@H](O)[C@H]4O)c(OC)c3)cc2n(C)c1=O` . Its inhibition (%) of PCA reaction was 49

The compound listed as `CCCCCCCCOc1c(O)c2ccc(NC(=O)/C=C/c3cc(OC)c(O[C@@H]4O[C@H](CO)[C@H](O)[C@H](O)[C@H]4O)c(OC)c3)cc2n(C)c1=O` has a reported inhibition (%) of PCA reaction of 46

The recorded inhibition (%) of PCA reaction for entry `CCCCCCCCOc1c(O[C@@H]2O[C@H](CO)[C@H](O)[C@H](O)[C@H]2O)c2ccc(NC(=O)/C=C/c3cc(OC)c(O[C@@H]4O[C@H](CO)[C@H](O)[C@H](O)[C@H]4O)c(OC)c3)cc2n(C)c1=O` equals 50

Lab note: measured inhibition (%) of PCA reaction of `CCCCCCCCOc1c(O)c2ccc(NC(=O)/C=C/c3cc(OC)c(O[C@@H]4O[C@H](C(=O)O)[C@@H](O)[C@H](O)[C@H]4O)c(OC)c3)cc2n(C)c1=O` was 42

* * *

Tested on: homologous passive cutaneous anaphylaxis (PCA) reaction in rats
Assay protocol: Effect on homologous passive cutaneous anaphylaxis (PCA) reaction in rats
Format: in vivo, rat (male wistar rats)
Experimental setup: 0.5 mg/kg i.v., 1 hour before challenge, vs vehicle control
Readout name: inhibition (%) of PCA reaction
A complete answer gives the number and then names the unit.

CCCCCCCCOc1c(O[C@@H]2O[C@H](CO)[C@@H](O)[C@H](O)[C@H]2O)c2ccc(NC(=O)/C=C/c3cc(OC)c(O)c(OC)c3)cc2n(C)c1=O = 42%
CCCCCCCCOc1c(O[C@H]2O[C@H](CO)[C@@H](O)[C@H](O)[C@@H]2O)c2ccc(NC(=O)/C=C/c3cc(OC)c(O)c(OC)c3)cc2n(C)c1=O = 42%

Below: the item to evaluate.
// field: inhibition (%) of PCA reaction; key: `CCCCCCCCOc1c(O[C@@H]2O[C@H](C(=O)O)[C@@H](O)[C@H](O)[C@H]2O)c2ccc(NC(=O)/C=C/c3cc(OC)c(O)c(OC)c3)cc2n(C)c1=O` ; value = 41%
